# experimental.target: T1, Mutant 2 of human SPNS2 (FLAG tag inserted in extracellular loop 5) (human, UniProt Q8IVW8 1-549)
# T1 construct: on HEK293 cells; also called extracellular loop 5 mutant
# T1 sequence: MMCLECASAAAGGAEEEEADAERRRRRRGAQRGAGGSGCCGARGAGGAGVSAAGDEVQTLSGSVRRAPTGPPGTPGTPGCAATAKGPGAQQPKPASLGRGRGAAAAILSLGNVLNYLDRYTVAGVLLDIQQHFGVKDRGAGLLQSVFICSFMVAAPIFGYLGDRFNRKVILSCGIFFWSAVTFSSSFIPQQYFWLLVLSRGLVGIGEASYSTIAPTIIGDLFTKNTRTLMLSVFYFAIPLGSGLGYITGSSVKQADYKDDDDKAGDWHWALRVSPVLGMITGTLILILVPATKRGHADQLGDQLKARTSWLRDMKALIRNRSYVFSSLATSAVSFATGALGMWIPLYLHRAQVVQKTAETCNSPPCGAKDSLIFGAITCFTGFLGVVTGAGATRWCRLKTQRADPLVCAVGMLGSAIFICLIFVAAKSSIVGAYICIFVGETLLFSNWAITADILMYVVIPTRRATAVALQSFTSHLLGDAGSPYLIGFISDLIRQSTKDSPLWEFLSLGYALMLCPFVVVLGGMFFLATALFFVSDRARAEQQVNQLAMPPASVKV
# measurement.protocol: flow cytometry, FLAG-insertion mutant
Below, each of the binders is paired with its reported FITC+/Alexa 647+ cell rate ratio value.

Example results:
83-1110B (antibody, IgG2b, V domains shown) VH: EVQLQQSGPEFVRPGTSVKFSCKVSGGSITSYFIHFVKQRPGQGLEWIGKIDPEDDSTKYGEKFKNKATLTADTSSNTAFLKLSSLTSEDTAIYFCTTLTGLDYWGQGVMVTVSS VL: DIQMTQSPPVLSAAVGDRVTLSCKASRSLNKNLDWYQQKHGETPKLLIYHTHNLQTGIPSRFSGSGSDTDYTLTISSLQTEDVATYYCYQYHSGWTFGGGTRLELRR | < 0.1 ratio
82-1109A (antibody, IgG2b, V domains shown) VH: QVQLQQSGVELAKPGSSVKISCKASGNTFTSNYITWIKQTPGQGLEYIGYINTGSGKTYYNEKFKGKATLTADKSSSTAFMQLSSLTPDDSAVYFCASLTGVDYFDDWGQGVMVTVSS VL: DDIVLTQSPALAPSLGQRATISCRASQSVRMSGYNLMHWYQQKPGQQPKLLIYDASKLASGIPARFSGSGSGTDFTLTIDPVQSDDIATYYCQQSKDDPYTFGAGTKLELRR | ≥ 0.5 ratio
94-1311E (antibody, V domains shown) VH: EVQLQQSGAGLVRPRTSVRLSCKISGDSITAYYVHFVKQRPGQGLEWIGRIDPEDDSTKYSEKFKNKATLTADVSSSTAYLILSSLTSDDSATYFCSTLTGLDYWGQGVMVTVSS VL: DIQMTQSPPVLSASVGDRVTLSCKASQSVHNKLDWYQQKHGEAPKLLIYYTHNLQTGIPSRFSGSGSGSDYTLTISSLRAEDVATYYCFQYYSGWTFGGGTKLEMKR | < 0.1 ratio

For the binder 89-1207D (antibody, IgG2b, V domains shown) VH: EVQLVGSGGGLVQPGRSMKLSCEASGFTFSNHYMAWVRQAPTKGLEWVATISTGGGNTYYRDSVKGRFTISRDNARSILSLQMDSLRSEDTATYYCARQDYSNYMGGFAYWGQGTLVTVSS VL: QFVLTQPNSVSTNLGSTVKLSCTRSIGNIGNNYVNWYKQYEGRSPTTMIYRDDERPDGVPDRFSGSIDRSSNSALLTINNVQTEDEADYFCQSFSSGMFIFGGGTKLTVL , give its reported FITC+/Alexa 647+ cell rate ratio.
< 0.1 ratio
